Target: UniProt:P33033
Sequence (P33033 whole entry): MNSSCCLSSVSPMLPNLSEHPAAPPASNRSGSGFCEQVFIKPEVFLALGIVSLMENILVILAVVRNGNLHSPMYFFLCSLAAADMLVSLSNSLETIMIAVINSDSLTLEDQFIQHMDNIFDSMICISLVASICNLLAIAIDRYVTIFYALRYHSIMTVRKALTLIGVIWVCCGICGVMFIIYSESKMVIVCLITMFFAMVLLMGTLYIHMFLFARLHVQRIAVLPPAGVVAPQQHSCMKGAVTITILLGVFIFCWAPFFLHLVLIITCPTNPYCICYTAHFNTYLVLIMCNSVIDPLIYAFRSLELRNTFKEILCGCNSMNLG
Test: Activity at mouse MC3R expressed in HEK293 cells assessed as cAMP accumulation by CRE/beta-galactosidase reporter gene assay
Reported pEC50 is given for each of the following compounds.
pEC50 is a log-scale quantity: -log10 of the concentration expressed in molar.

Solved entries:
Lab request: please report pEC50 under test system UniProt:P33033 for CCCC[C@H](NC(C)=O)C(=O)N[C@H]1CCn2cc(nn2)CC[C@@H](C(N)=O)NC(=O)[C@H](Cc2c[nH]c3ccccc23)NC(=O)[C@H](CCCNC(=N)N)NC(=O)[C@@H](Cc2ccccc2)NC(=O)[C@H](Cc2cnc[nH]2)NC1=O
9.54

Lab request: please report pEC50 under test system UniProt:P33033 for CCCC[C@H](NC(C)=O)C(=O)N[C@H]1CCCn2cc(nn2)CC[C@@H](C(N)=O)NC(=O)[C@H](Cc2c[nH]c3ccccc23)NC(=O)[C@H](CCCNC(=N)N)NC(=O)[C@@H](Cc2ccccc2)NC(=O)[C@H](Cc2cnc[nH]2)NC1=O
8.72

Lab request: please report pEC50 under test system UniProt:P33033 for CCCC[C@H](NC(C)=O)C(=O)N[C@H]1Cc2cn(nn2)CCCC[C@@H](C(N)=O)NC(=O)[C@H](Cc2c[nH]c3ccccc23)NC(=O)[C@H](CCCNC(=N)N)NC(=O)[C@@H](Cc2ccccc2)NC(=O)[C@H](Cc2cnc[nH]2)NC1=O
8.50

Now consider the entry below.
Lab request: please report pEC50 under test system UniProt:P33033 for CCCC[C@H](NC(C)=O)C(=O)N[C@H]1Cn2cc(nn2)CCCC[C@@H](C(N)=O)NC(=O)[C@H](Cc2c[nH]c3ccccc23)NC(=O)[C@H](CCCNC(=N)N)NC(=O)[C@@H](Cc2ccccc2)NC(=O)[C@H](Cc2cnc[nH]2)NC1=O
9.22

----------
Reported EC50 is given for each of the following compounds.
Target: Melanocortin receptor 4 (Mus musculus, UniProt P56450)
Sequence (P56450 whole entry): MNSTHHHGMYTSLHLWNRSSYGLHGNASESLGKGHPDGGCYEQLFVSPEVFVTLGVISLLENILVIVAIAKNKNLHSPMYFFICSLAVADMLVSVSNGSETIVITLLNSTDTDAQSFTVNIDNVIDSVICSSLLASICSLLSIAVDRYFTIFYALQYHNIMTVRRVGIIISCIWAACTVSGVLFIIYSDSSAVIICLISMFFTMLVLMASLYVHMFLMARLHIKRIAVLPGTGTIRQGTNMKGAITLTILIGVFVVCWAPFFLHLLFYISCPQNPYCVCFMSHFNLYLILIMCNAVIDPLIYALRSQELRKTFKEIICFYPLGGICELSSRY
Experiment: Activity at mouse MC4R expressed in HEK293 cells assessed as cAMP accumulation by CRE/beta-galactosidase reporter gene assay
Express the result in nM but write the number alone.

Form field: reported EC50 of CCCC[C@H](NC(C)=O)C(=O)N[C@H]1Cn2cc(nn2)CCCC[C@@H](C(N)=O)NC(=O)[C@H](Cc2c[nH]c3ccccc23)NC(=O)[C@H](CCCNC(=N)N)NC(=O)[C@@H](Cc2ccccc2)NC(=O)[C@H](Cc2cnc[nH]2)NC1=O
0.14

Form field: reported EC50 of CCCC[C@H](NC(C)=O)C(=O)N[C@H]1Cc2cn(nn2)CCCC[C@@H](C(N)=O)NC(=O)[C@H](Cc2c[nH]c3ccccc23)NC(=O)[C@H](CCCNC(=N)N)NC(=O)[C@@H](Cc2ccccc2)NC(=O)[C@H](Cc2cnc[nH]2)NC1=O
1.62

Form field: reported EC50 of CCCC[C@H](NC(C)=O)C(=O)N[C@H]1CCCn2cc(nn2)CC[C@@H](C(N)=O)NC(=O)[C@H](Cc2c[nH]c3ccccc23)NC(=O)[C@H](CCCNC(=N)N)NC(=O)[C@@H](Cc2ccccc2)NC(=O)[C@H](Cc2cnc[nH]2)NC1=O
0.85

Form field: reported EC50 of CCCC[C@H](NC(C)=O)C(=O)N[C@@H](CC(=O)O)C(=O)N[C@@H](Cc1c[nH]cn1)C(=O)N[C@H](Cc1ccccc1)C(=O)N[C@@H](CCCN=C(N)N)C(=O)N[C@@H](Cc1c[nH]c2ccccc12)C(=O)N[C@@H](CCCCN)C(N)=O
0.21

Form field: reported EC50 of CCCCCC[C@H](NC(=O)[C@H](Cc1c[nH]c2ccccc12)NC(=O)[C@H](CCCNC(=N)N)NC(=O)[C@@H](Cc1ccccc1)NC(=O)[C@H](Cc1cnc[nH]1)NC(=O)[C@H](CN=[N+]=[N-])NC(=O)[C@H](CCCC)NC(C)=O)C(N)=O
0.14
